apparent KD of MS2 coat protein by entry:
tested on: MS2 coat protein; assay: apparent KD of MS2 coat protein; designed switch direction (-1 OFF switch, 1 ON switch): -1; higher = weaker reporter binding; conditions: input ligand: none
Observable: apparent KD of MS2 coat protein (nM)

1. GCAGCAACUCUAACCAACUAAACAUGAGGAUCACCCAUGUCUCAGGAUAUGGUCUGGAUUACAGGCCAGAAGGGAGAAAGCUGC [Eli exng3 - 042] (Eterna round: R96, puzzle: Exclusion NG 3) ... 12.6
2. AACCCUCGUCAAGGAUAUACAUAGAAAAGCUUGGUAGAAGGUGACAUGAGGAUCACCCAUGUAAAAGGCCUGUCCAUUCAGGCC [Isonce] (Eterna round: R96, puzzle: Exclusion NG 1) ... 78.1
3. ACCUCACAUGAGGAUCACCCAUGUCAGGAUAUCUAAUAUUGCAGCGUUCCCGACGCUGAGAGAAGGGACAUUAA [EX1 #30] (Eterna round: R97, puzzle: Exclusion 1) ... 17.7
4. UGAUCUAGGCGAGGAUAUACAUGAGGAUCACCCAUGUAAGCGUGACAUGGAAACAUGUCACGUAUGUAGAAGGCGCCUAGAUCU [MOD ENG2 3.54 by JL] (Eterna round: R96, puzzle: Exclusion NG 2) ... 13.3
5. GAAUAGAGAGGAUAUGCAAUGUAGGUAGUACGAUAUAUCUGACAUGAGGAUCACCCAUGUAGAAGGCUCAGAUC [EX2 #7] (Eterna round: R97, puzzle: Exclusion 2) ... 37.9

* * *

Parameter apparent KD of MS2 coat protein: see the listing below.
system: MS2 coat protein; experiment: apparent KD of MS2 coat protein; designed switch direction (-1 OFF switch, 1 ON switch): -1; higher = weaker reporter binding; settings: input ligand: microRNA oligo, concentration not stated
Observable: apparent KD of MS2 coat protein (nM)

1) AGUCAGGCGGUAGGAUAUCCAUAUCGAGUGACCCUUUCAUAACAUGAGGAUCACCCAUGUCGGUGGGAGAAGGGCCGUACGGCG [JL ViennaUCT Atra mod 4] (Eterna round: R96, puzzle: Exclusion NG 2) ... 84.2
2) AGAGUGCUGCGAGGAUAUACAUGAGGAUCACCCAUGUGGUCCUGUGAGGCAAAGCCUCACAGGAUGUAGAAGGCGCAGUACUCA [Mat - Exclusion NG 2 - Mod of JL - D46] (Eterna round: R96, puzzle: Exclusion NG 2) ... 14.2
3) AGUCAGGCGGUAGGAUAUCCAUAUCGAGUGACCCUUUCAUAACAUGAGGAUCACCCAUGUCGGUGGGAGAAGGGCCGUACGGCA [Mat - Exclusion NG 2 - Mod of JL - D68] (Eterna round: R96, puzzle: Exclusion NG 2) ... 52.3
4) GCACGAAGUGUAGGAUAUCUGUGCGAUUAGCUCAGAGAAGGACACAUGAGGAUCACCCAUGUGUUCCAAUACUCAAAUACGUGC [Eli exng1 - 0622] (Eterna round: R96, puzzle: Exclusion NG 1) ... 9.09

* * *

The entries below are paired with their reported apparent KD of MS2 coat protein.
system: MS2 coat protein; assay: apparent KD of MS2 coat protein; designed switch direction (-1 OFF switch, 1 ON switch): -1; higher = weaker reporter binding; settings: input ligand: none
Observable: apparent KD of MS2 coat protein

1) AUGACCUAAGGAUAUACAUGAGGAUCACCCAUGUCAGGUAAGCCUGUCCGCGGUGCAUGUAGAAGGUAGCUACC [EX3 A.27] (Eterna round: R97, puzzle: Exclusion 3) ... 116 nM
2) CCAUGUGAGGAGGAUAUCGCCGCGCGAACCGAAUGAGAAGGUCUUACAUGAGGAUCACCCAUGUAAAGUACAUC [Eternabot (L1) Solution 1] (Eterna round: R97, puzzle: Exclusion 6) ... 13.1 nM
3) CUGCUGGAGCUUUGCUUUGGUCGUACAUGAGGAUCACCCAUGUAGGAUAUGGUAGGCUUUGCUUACUAGAAGGAUAGAGUGGUC [salish99_ExNG3_r04_608] (Eterna round: R96, puzzle: Exclusion NG 3) ... 86.4 nM
4) UACGGUCCUAACAUGAGGAUCACCCAUGUAACAAAAGAAACCUAGGAUAUCCGCGCCGGAAGGAAGGAGAAGGAGGGCGUGGCA [Ededti] (Eterna round: R96, puzzle: Exclusion NG 3) ... 51.8 nM
5) AGUUAGAAAGGAUAUACAUGAGGAUCACCCAUGUAGGGCUGUUAGAGACCCGGUCUCUGUAGAAGGUUCGAACU [EX3 C.16] (Eterna round: R97, puzzle: Exclusion 3) ... 28.9 nM
